tgt: SARS-CoV-2 Main Protease (SARS-CoV-2)
condition-notes: 50.0 µM
assay-metric: inhibition (%)

>>> test_result("Cc1ccncc1NC(=O)Cc1cccc(F)c1")
40.9
>>> test_result("C=CC(=O)N(c1ccc(C(C)(C)C)cc1)C(C(=O)NCCOC)c1cccnc1 (configuration not stated)")
70.3
>>> test_result("O=C(C(F)Cl)N1CCN(Cc2cccc3ccccc23)CC1 (configuration not stated)")
9.11
>>> test_result("COc1ccc(N2CCN(C(=O)c3cc(=O)[nH]c4ccccc34)CC2)cc1")
51.4
>>> test_result("C=CC(=O)N(c1ccc(C(C)(C)C)cc1)C(C(=O)NCCSC)c1cccnc1 (configuration not stated)")
63.9
>>> test_result("CS(=O)(=O)Nc1cccc(C(=O)Oc2cccc(N3CCCC3=O)c2)c1")
11.2
>>> test_result("CCOCC(=O)NCc1ccc(CNC(=O)Cn2nnc3ccccc32)cc1")
0
